# Test system: MM.1S (human multiple myeloma B cells)
# Test description: MTS cell proliferation cytotoxicity assay
# Format: cell-based
# Experimental parameters: 72 h drug treatment; based on Pt concentration
# Text: Cell culture. SU-DHL-4 (human lymphoma B cells) was from the Deutsche Sammlung von Mikroorganismen and Zellkulturen GmbH (DSMZ, Braunschweig, Germany). MM.1S (human multiple myeloma B cells) was previously established in the laboratory of Prof. Steven. […] The MTS assay is one of most high throughput and economical assays for detecting viability of cancer cells. […] Cell growth rates were expressed as a function of drug concentration on a logarithmic scale. […]
Value kind: IC50

Molecule	Result
N.N.[Cl][Pt][Cl] [CisPt, cis-diamine dichloroplatinum(II)]	1.43 µM
